The following molecules are shown together with reported EC MIC values.
Tested on: E. coli ATCC 25922
protocolDetails: MIC, E. coli ATCC 25922
Format: cell-based
studyConditions: Table 13; L = NH

- smilesString: "CNc1cc(F)cc2c1[nH]c1nc(Nc3cnc4ccnn4c3)nc(N3C[C@H]4CC3C[C@H]4N)c12"
  EC MIC: "≤ 0.5 µg/mL"
- smilesString: "CNc1cc(F)cc2c1[nH]c1nc(Nc3cnc(C)nc3)nc(N3C[C@H]4CC3C[C@H]4N)c12"
  EC MIC: "≤ 0.5 µg/mL"

Now for another entry.
-- ask Item under review: CNc1cc(F)cc2c1[nH]c1nc(Nc3cccnc3)nc(N3C[C@H]4CC3C[C@H]4N)c12 . Reported EC MIC?
-- reply ≤ 0.5 µg/mL

---

The following molecules are shown together with reported MIC values.
System: S. aureus ATCC 13709
protocolDetails: MIC, S. aureus ATCC 13709
Type: cell-based
studyConditions: Staphylococcus aureus, ATCC13709, S. aureus; Alamar Blue read after overnight incubation at 35° C.; read-out: MIC Sa

For orientation, consider the following solved cases.
- molecule: "CNc1cccc2c1[nH]c1nc(Oc3cnc(C)nc3)cc(N3CC4C(C3)C4NCC3CC3)c12 (centres unmarked)"
  MIC: "≤ 0.5 µg/mL"
- molecule: "CNc1cc(F)cc2c1[nH]c1nc(Sc3cnc4cccnc4c3)nc(N3CC(N)C4(CC4)C3)c12 (centres unmarked)"
  MIC: "≤ 0.5 µg/mL"

-- ask Item under review: CNc1cccc2c1[nH]c1nc(Oc3cncnc3)cc(N3CCC4(CC4N)C3)c12 (centres unmarked) . Reported MIC?
-- reply ≤ 0.5 µg/mL

-- ask Item under review: CNc1ccc(C)c2c1[nH]c1nc(Sc3cnc4cccnc4c3)nc(N3CC4C(N)C4C3)c12 (centres unmarked) . Reported MIC?
-- reply ≤ 0.5 µg/mL

-- ask Item under review: CNc1cccc2c1[nH]c1nc(Sc3cnc4ccc[n+]([O-])c4c3)nc(N3CCC[C@@H](N)C3)c12 . Reported MIC?
-- reply 1 µg/mL

-- ask Item under review: CNc1cccc2c1[nH]c1nc(Oc3cnc(C)nc3)cc(Oc3cnc(C)nc3)c12 . Reported MIC?
-- reply 1 µg/mL

-- ask Item under review: CNc1cccc2c1[nH]c1nc(Oc3cncnc3)cc(N3CC[C@@H](N)C3)c12 . Reported MIC?
-- reply 0.5 µg/mL

-- ask Item under review: CNc1cc(F)cc2c1[nH]c1nc(Oc3cnc(C(C)(C)O)nc3)nc(N3CC4(CC[C@H]4N)C3)c12 . Reported MIC?
-- reply ≤ 0.5 µg/mL

---

The following compounds are shown together with reported MIC values.
Test system: S. aureus ATCC 13709
protocolDetails: MIC, S. aureus ATCC 13709
Format: cell-based
studyConditions: Staphylococcus aureus, ATCC13709, S. aureus; Alamar Blue read after overnight incubation at 35° C.; read-out: MIC Sa

For orientation, consider the following solved cases.
- compound: "Cc1ncc(Oc2nc(N3C[C@H](N)C4(CC4)C3)c3c(n2)[nH]c2c(N(C)C(=O)[C@H](C)N)cc(F)cc23)cn1"
  MIC: "> 16 µg/mL"
- compound: "CNc1cc(F)cc2c1[nH]c1nc(Oc3cnc([C@@H](C)O)nc3)nc(N3C[C@H]4C[C@@H]3C[C@H]4N)c12"
  MIC: "≤ 0.5 µg/mL"

Now for another entry.
-- ask Item under review: CNc1cccc2c1[nH]c1nc(Oc3cnc(N4CCOCC4)nc3)cc(N3CC4C(N)C4C3)c12 (stereo not drawn) . Reported MIC?
-- reply > 16 µg/mL

---

The following compounds are shown together with reported MIC Ec values.
Test system: E. coli ATCC 25922
protocolDetails: MIC, E. coli ATCC 25922
Format: cell-based
studyConditions: Table 18, Ec

For orientation, consider the following solved cases.
- compound: "CNc1cc(F)cc2c1[nH]c1nc(Nc3cnc4c(c3)nnn4C(C)C)nc(N3C[C@H]4C[C@@H]3C[C@H]4N)c12 [Compound 10.43]"
  MIC Ec: "1 µg/mL"
- compound: "CNc1ncc(Oc2nc(N3CCC4(CC[C@H]4N)C3)c3c(n2)[nH]c2c(NC)cc(F)cc23)cn1 (some centres unmarked) [Compound 10.102]"
  MIC Ec: "≤ 0.5 µg/mL"
- compound: "CNc1cc(F)cc2c1[nH]c1nc(Oc3ccc(C)nc3)nc(N3CC4CC(C)NC4C3)c12 (centres unmarked) [Compound 10.79]"
  MIC Ec: "≤ 0.5 µg/mL"
- compound: "CCOC(=O)c1csc(Nc2nc(N3C[C@H]4C[C@@H]3C[C@H]4N)c3c(n2)[nH]c2c(NC)cc(F)cc23)n1 [Compound 10.42]"
  MIC Ec: "1 µg/mL"

-- ask Item under review: CNc1cc(F)cc2c1[nH]c1nc(Oc3cnc(C)nc3)nc(N3CC4(CC/C4=N\O)C3)c12 [Compound 10.61] . Reported MIC Ec?
-- reply 2 µg/mL

-- ask Item under review: CNc1cc(F)c(Cl)c2c1[nH]c1nc(Oc3cnc([C@@H](C)O)nc3)nc(N3C[C@H]4C[C@@H]3C[C@H]4N)c12 [Compound 10.87] . Reported MIC Ec?
-- reply ≤ 0.5 µg/mL

-- ask Item under review: CNc1cc(F)cc2c1[nH]c1nc(Oc3cnc(C(C)C#N)nc3)nc(N3C[C@H]4C[C@@H]3C[C@H]4N)c12 (some centres unmarked) [Compound 10.91] . Reported MIC Ec?
-- reply > 16 µg/mL

-- ask Item under review: CNc1cc(F)cc2c1[nH]c1nc(Sc3nc4cccnc4[nH]3)nc(N3C[C@H]4C[C@@H]3C[C@H]4N)c12 [Compound 10.38] . Reported MIC Ec?
-- reply ≤ 0.5 µg/mL

---

Test system: S. aureus ATCC 13709
protocolDetails: MIC, S. aureus ATCC 13709
Type: cell-based
studyConditions: Staphylococcus aureus, ATCC13709, S. aureus; Alamar Blue read after overnight incubation at 35° C.; read-out: MIC Sa
The following compounds are shown together with reported MIC values.
Numeric only. Scale: µg/mL

- compound: "CNc1cccc2c1[nH]c1nc(Oc3cncc(C(N)=O)c3)cc(N3CC4C(N)C4C3)c12 (stereo not drawn)"
  testedOn: "S. aureus ATCC 13709"
  MIC (µg/mL): 8
- compound: "CNc1cccc2c1[nH]c1nc(Oc3cnc(N)nc3)nc(Oc3cnc(N)nc3)c12"
  testedOn: "S. aureus ATCC 13709"
  MIC (µg/mL): 8

Now for another entry.
-- ask Item under review: CNc1ncnc2c1[nH]c1nc(Oc3cncc(F)c3)nc(N3CC(N)C4(CC4)C3)c12 (stereo not drawn) . Reported MIC?
-- reply 8

---

The following compounds are shown together with reported MIC values.
System: S. aureus ATCC 13709
protocolDetails: MIC, S. aureus ATCC 13709
Assay type: cell-based
studyConditions: Staphylococcus aureus, ATCC13709, S. aureus; Alamar Blue read after overnight incubation at 35° C.; read-out: MIC Sa
Numeric only. Scale: µg/mL

For orientation, consider the following solved cases.
- compound: "CNc1nccc2c1[nH]c1nc(Sc3cnc4nccnc4c3)nc(N3CC[C@@H](N)C3)c12 [Compound 7.01]"
  MIC, µg/mL: 8
- compound: "CNc1cccc2c1[nH]c1nc(Oc3cncc(C#N)c3)cc(N3CCN(CCN)CC3)c12 [Compound 3.55]"
  MIC, µg/mL: 64
- compound: "CNc1cccc2c1[nH]c1nc(Oc3cncnc3)cc(N3CC4C(C3)C4NC(=O)CN)c12 (centres unmarked) [Compound 3.18]"
  MIC, µg/mL: 4

-- ask Item: CNc1cccc2c1[nH]c1nc(Oc3ccc[n+]([O-])c3)cc(N3CC4C(N)C4C3)c12 (centres unmarked) [Compound 3.30] Test system: S. aureus ATCC 13709 Read-out: MIC Value: ?
-- reply 16

-- ask Item: CNc1cccc2c1[nH]c1nc(Sc3cncc(S(N)(=O)=O)c3)nc(N3CC4C(N)C4C3)c12 (centres unmarked) [Compound 1.41] Test system: S. aureus ATCC 13709 Read-out: MIC Value: ?
-- reply 4

-- ask Item: CNc1cccc2c1[nH]c1nc(Oc3ccc[n+]([O-])c3)cc(Oc3cnc(C)nc3)c12 [Compound 3.39] Test system: S. aureus ATCC 13709 Read-out: MIC Value: ?
-- reply 2

-- ask Item: CNc1cccc2c1[nH]c1nc(Oc3ccc[n+]([O-])c3)nc(Oc3cnc(C)nc3)c12 [Compound 8.3] Test system: S. aureus ATCC 13709 Read-out: MIC Value: ?
-- reply 2

-- ask Item: COc1cccc2c1[nH]c1nc(Sc3cnc4ccc[n+]([O-])c4c3)nc(N3CC(N)C3)c12 [Compound 1.77] Test system: S. aureus ATCC 13709 Read-out: MIC Value: ?
-- reply 2
